Values compiled from ChEMBL document CHEMBL5137051.

# System: Epidermal growth factor receptor (Homo sapiens), P00533 [L858R,T790M,C797S]
# Sequence (P00533 whole entry T790M/C797S/L858R): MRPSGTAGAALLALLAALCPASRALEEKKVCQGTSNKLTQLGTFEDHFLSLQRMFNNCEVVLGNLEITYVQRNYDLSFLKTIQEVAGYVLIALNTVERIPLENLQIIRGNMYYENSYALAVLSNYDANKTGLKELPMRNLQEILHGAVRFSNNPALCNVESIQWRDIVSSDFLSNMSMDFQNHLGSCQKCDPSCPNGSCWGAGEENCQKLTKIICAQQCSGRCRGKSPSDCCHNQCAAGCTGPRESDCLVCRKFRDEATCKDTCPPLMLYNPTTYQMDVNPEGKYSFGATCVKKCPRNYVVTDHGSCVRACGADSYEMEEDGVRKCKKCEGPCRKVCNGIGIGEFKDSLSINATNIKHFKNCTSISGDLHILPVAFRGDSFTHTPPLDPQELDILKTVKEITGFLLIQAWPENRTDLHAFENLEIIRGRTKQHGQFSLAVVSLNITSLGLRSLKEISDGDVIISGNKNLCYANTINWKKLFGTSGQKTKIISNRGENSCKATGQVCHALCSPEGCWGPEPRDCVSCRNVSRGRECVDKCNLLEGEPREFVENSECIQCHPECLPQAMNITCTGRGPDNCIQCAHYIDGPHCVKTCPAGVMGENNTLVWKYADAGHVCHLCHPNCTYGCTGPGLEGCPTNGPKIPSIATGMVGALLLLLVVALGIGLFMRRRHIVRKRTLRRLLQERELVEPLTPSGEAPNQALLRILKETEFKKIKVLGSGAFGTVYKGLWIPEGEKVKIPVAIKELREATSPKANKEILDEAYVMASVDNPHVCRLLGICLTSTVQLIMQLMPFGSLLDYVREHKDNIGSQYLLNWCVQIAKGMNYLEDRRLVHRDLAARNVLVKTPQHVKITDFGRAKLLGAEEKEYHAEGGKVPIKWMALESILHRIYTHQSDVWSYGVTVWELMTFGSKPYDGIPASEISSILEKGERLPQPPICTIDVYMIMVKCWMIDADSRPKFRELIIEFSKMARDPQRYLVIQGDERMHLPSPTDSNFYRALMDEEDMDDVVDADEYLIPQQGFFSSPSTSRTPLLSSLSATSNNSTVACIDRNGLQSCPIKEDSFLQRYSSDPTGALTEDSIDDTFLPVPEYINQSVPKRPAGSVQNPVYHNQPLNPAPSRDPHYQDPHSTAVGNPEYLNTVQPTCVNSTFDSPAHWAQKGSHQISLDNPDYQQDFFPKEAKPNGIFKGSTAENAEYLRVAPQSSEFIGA
# condition-summary: dose 300.0 nM
measured-metric: inhibition (%)

COc1cc(N(C)CCN(C)C)c(NC(=O)c2cnccn2)cc1Nc1nc(-c2cn(C)c3ccccc23)c2ccccc2n1
-9.4
COc1ccc(C(=O)Nc2cc(Nc3nc(-c4cn(C)c5ccccc45)c4cccnc4n3)c(OC)cc2N(C)CCN(C)C)nc1
12.8
COc1cc(N(C)CCN(C)C)c(NC(=O)c2ccnc(Cl)c2)cc1Nc1nccc(-c2cn(CCCO)c3ccccc23)n1
70.1
COc1cc(N(C)CCN(C)C)c(NC(=O)c2ccncc2OC)cc1Nc1nccc(-c2cn(CCCO)c3ccccc23)n1
49.5
COc1ccc(C(=O)Nc2cc(Nc3nccc(-c4cn(C)c5ccccc45)n3)c(OC)cc2N(C)C)nc1
1.2

A = COc1cc(N(C)CCN(C)C)c(NC(=O)c2ccncc2)cc1Nc1nccc(-c2cn(C)c3ccccc23)n1
B = COc1cc(N(C)CCN(C)C)c(NC(=O)c2ccncn2)cc1Nc1nccc(-c2cn(CCCO)c3ccccc23)n1
(Q) Higher inhibition between A and B ? Respond with the label that goes with your answer.
(A) B
(B: 65.6%, A: 24%)

---

# System: Epidermal growth factor receptor (Homo sapiens), P00533 [L858R,T790M,C797S]
# condition-summary: dose 300.0 nM
measured-metric: inhibition (%)

1 = COc1cc(N(C)C)c(NC(=O)c2ccccn2)cc1Nc1nccc(-c2cn(C)c3ccccc23)n1
2 = COc1cc(N(C)CCN(C)C)c(NC(=O)c2nccn2C)cc1Nc1nc(-c2cn(C)c3ccccc23)c2cccnc2n1
(Q) Higher inhibition between 1 and 2 ? Respond with the label that goes with your answer.
(A) 2

1 = COc1cc(N(C)C)c(NC(=O)c2ncccn2)cc1Nc1nccc(-c2cn(C)c3ccccc23)n1
2 = COc1ccc(C(=O)Nc2cc(Nc3nccc(-c4cn(C)c5ccccc45)n3)c(OC)cc2F)nc1
3 = COc1cc(N(C)CCN(C)C)c(NC(=O)c2ccnc(Cl)c2)cc1Nc1nccc(-c2cn(C)c3ccccc23)n1
(Q) Endpoint returns the given compounds ordered by ascending inhibition. Put the labels in the requested order and list them out.
(A) 2, 1, 3

I = COc1cc(N(C)C)c(NC(=O)c2ccnc(Cl)c2)cc1Nc1nccc(-c2cn(C)c3ccccc23)n1
II = COc1cc(N(C)CCN(C)C)c(NC(=O)c2ncccn2)cc1Nc1nccc(-c2cn(C)c3ccccc23)n1
III = COc1cc(N(C)C)c(NC(=O)c2ccnc(Cl)n2)cc1Nc1nccc(-c2cn(C)c3ccccc23)n1
IV = COc1cc(F)c(NC(=O)c2ccncc2OC)cc1Nc1nccc(-c2cn(C)c3ccccc23)n1
(Q) Sort by inhibition, descending. Put the labels in the requested order and list them out.
(A) II, I, IV, III
(II: 38.2%, I: 9.4%, IV: 2.2%, III: -1.8%)

I = COc1cc(N(C)C)c(NC(=O)c2nccn2C)cc1Nc1nccc(-c2cn(C)c3ccccc23)n1
II = COc1cc(F)c(NC(=O)c2nccn2C)cc1Nc1nccc(-c2cn(C)c3ccccc23)n1
III = COc1cc(N(C)CCN(C)C)c(NC(=O)c2ccncc2OC)cc1Nc1nccc(-c2cn(C)c3ccccc23)n1
IV = COc1cc(F)c(NC(=O)c2ccccn2)cc1Nc1nccc(-c2cn(C)c3ccccc23)n1
V = COc1cc(N(C)C)c(NC(=O)c2ccncc2)cc1Nc1nccc(-c2cn(C)c3ccccc23)n1
(Q) Sort by inhibition, descending. Put the labels in the requested order and list them out.
(A) III, V, I, II, IV

a = COc1cc(N(C)C)c(NC(=O)c2ccncn2)cc1Nc1nccc(-c2cn(C)c3ccccc23)n1
b = COc1cc(N(C)CCN(C)C)c(NC(=O)c2cnccn2)cc1Nc1nccc(-c2cn(C)c3ccccc23)n1
c = COc1cc(N(C)C)c(NC(=O)c2c[nH]cn2)cc1Nc1nccc(-c2cn(C)c3ccccc23)n1
d = COc1cc(F)c(NC(=O)c2ccncc2)cc1Nc1nccc(-c2cn(C)c3ccccc23)n1
e = COc1cc(N(C)CCN(C)C)c(NC(=O)c2ccncn2)cc1Nc1nccc(-c2cn(C)c3ccccc23)n1
(Q) Sort by inhibition, descending. Put the labels in the requested order and list them out.
(A) e, b, c, d, a
(e: 60.8%, b: 38.2%, c: 24.7%, d: 15.5%, a: 8.8%)

P = COc1cc(F)c(NC(=O)c2ncccn2)cc1Nc1nccc(-c2cn(C)c3ccccc23)n1
Q = COc1cc(N(C)CCN(C)C)c(NC(=O)c2cccnc2)cc1Nc1nccc(-c2cn(C)c3ccccc23)n1
(Q) Higher inhibition between P and Q ? Respond with the label that goes with your answer.
(A) Q

A = COc1cc(F)c(NC(=O)c2ccnc(Cl)c2)cc1Nc1nccc(-c2cn(C)c3ccccc23)n1
B = COc1cc(N(C)CCN(C)C)c(NC(=O)c2ccnc(O)c2)cc1Nc1nccc(-c2cn(C)c3ccccc23)n1
(Q) Higher inhibition between A and B ? Respond with the label that goes with your answer.
(A) B
(B: 38.1%, A: 9.6%)

---

# System: A549
# experiment-notes: Antiproliferative activity against human A549 cells assessed as cell viability after 72 hrs by MTT assay
# Type: functional, cell-based
# condition-summary: A549, 72 h
pIC50: −log10 of the molar value.
measured-metric: pIC50

COc1ccc(C(=O)Nc2cc(Nc3nccc(-c4cn(C)c5ccccc45)n3)c(OC)cc2F)nc1
5.09
COc1cc(N(C)CCN(C)C)c(NC(=O)c2nccn2C)cc1Nc1nc(-c2cn(C)c3ccccc23)c2cccnc2n1
5.25
COc1cc(N(C)C)c(NC(=O)c2ccncc2)cc1Nc1nccc(-c2cn(C)c3ccccc23)n1
5.05
COc1cc(N(C)C)c(NC(=O)c2ccncc2OC)cc1Nc1nccc(-c2cn(C)c3ccccc23)n1
5.52
COc1cc(N(C)C)c(NC(=O)c2ncccn2)cc1Nc1nccc(-c2cn(C)c3ccccc23)n1
5.06
COc1cc(N(C)C)c(NC(=O)c2nccn2C)cc1Nc1nccc(-c2cn(C)c3ccccc23)n1
4.99
COc1cc(N(C)CCN(C)C)c(NC(=O)c2ncccn2)cc1Nc1nccc(-c2cn(C)c3ccccc23)n1
5.60
COc1cc(N(C)C)c(NC(=O)c2ccccn2)cc1Nc1nccc(-c2cn(C)c3ccccc23)n1
5.08

a = COc1cc(F)c(NC(=O)c2ccccn2)cc1Nc1nccc(-c2cn(C)c3ccccc23)n1
b = COc1cc(N(C)CCN(C)C)c(NC(=O)c2cnccn2)cc1Nc1nccc(-c2cn(C)c3ccccc23)n1
c = COc1cc(N(C)CCN(C)C)c(NC(=O)c2ccncn2)cc1Nc1nccc(-c2cn(CCCO)c3ccccc23)n1
(Q) Endpoint returns the given compounds ordered by ascending pIC50. Put the labels in the requested order and list them out.
(A) a, b, c
(a: 5.10, b: 5.36, c: 5.58)

a = COc1cc(N(C)C)c(NC(=O)c2ccnc(Cl)n2)cc1Nc1nccc(-c2cn(C)c3ccccc23)n1
b = COc1cc(F)c(NC(=O)c2nccn2C)cc1Nc1nccc(-c2cn(C)c3ccccc23)n1
c = COc1cc(N(C)CCN(C)C)c(NC(=O)c2ccnc(O)c2)cc1Nc1nccc(-c2cn(C)c3ccccc23)n1
(Q) Endpoint returns the given compounds ordered by ascending pIC50. Put the labels in the requested order and list them out.
(A) c, b, a

P = COc1ccc(C(=O)Nc2cc(Nc3nc(-c4cn(C)c5ccccc45)c4cccnc4n3)c(OC)cc2N(C)CCN(C)C)nc1
Q = COc1cc(F)c(NC(=O)c2ccnc(Cl)c2)cc1Nc1nccc(-c2cn(C)c3ccccc23)n1
R = COc1cc(N(C)CCN(C)C)c(NC(=O)c2ccncc2OC)cc1Nc1nccc(-c2cn(C)c3ccccc23)n1
(Q) Endpoint returns the given compounds ordered by ascending pIC50. Put the labels in the requested order and list them out.
(A) Q, P, R
(Q: 5.16, P: 5.37, R: 5.57)

---

# study-system: Epidermal growth factor receptor (Homo sapiens, UniProt P00533, L858R/T790M)
# Sequence (P00533 25-1210 T790M/L858R limits assumed): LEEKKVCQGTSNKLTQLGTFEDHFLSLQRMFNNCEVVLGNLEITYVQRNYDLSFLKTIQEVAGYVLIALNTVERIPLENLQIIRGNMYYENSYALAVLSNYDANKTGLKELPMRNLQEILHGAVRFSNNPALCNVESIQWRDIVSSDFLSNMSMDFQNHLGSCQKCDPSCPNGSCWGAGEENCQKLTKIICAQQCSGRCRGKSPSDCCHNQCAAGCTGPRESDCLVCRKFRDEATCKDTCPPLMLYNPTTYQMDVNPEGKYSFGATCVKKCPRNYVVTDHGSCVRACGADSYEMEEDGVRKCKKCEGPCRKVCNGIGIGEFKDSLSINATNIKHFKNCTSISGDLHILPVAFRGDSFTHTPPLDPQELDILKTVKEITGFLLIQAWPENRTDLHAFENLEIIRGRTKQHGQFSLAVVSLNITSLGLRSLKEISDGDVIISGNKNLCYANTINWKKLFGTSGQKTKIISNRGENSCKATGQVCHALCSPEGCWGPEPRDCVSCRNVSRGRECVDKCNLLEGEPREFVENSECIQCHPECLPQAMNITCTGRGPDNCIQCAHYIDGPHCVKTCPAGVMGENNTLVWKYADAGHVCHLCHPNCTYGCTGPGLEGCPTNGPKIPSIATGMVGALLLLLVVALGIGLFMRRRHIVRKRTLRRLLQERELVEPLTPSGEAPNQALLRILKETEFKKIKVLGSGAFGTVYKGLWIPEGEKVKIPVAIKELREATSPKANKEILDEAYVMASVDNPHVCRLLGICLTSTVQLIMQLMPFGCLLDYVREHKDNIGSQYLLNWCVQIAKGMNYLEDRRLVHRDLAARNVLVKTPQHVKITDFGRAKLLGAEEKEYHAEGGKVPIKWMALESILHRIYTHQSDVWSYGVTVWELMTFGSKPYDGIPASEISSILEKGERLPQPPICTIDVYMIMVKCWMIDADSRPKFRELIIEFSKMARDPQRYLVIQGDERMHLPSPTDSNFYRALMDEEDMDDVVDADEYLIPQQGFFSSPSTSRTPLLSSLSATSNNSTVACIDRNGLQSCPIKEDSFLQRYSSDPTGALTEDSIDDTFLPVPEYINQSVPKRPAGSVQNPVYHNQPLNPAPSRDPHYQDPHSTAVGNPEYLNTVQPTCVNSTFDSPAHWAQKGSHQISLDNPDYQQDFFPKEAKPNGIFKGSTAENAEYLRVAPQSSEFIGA
# experiment-notes: Inhibition of EGFR L858R/T790M mutant (unknown origin) by mobility shift assay
measured-metric: IC50

Guide cases for IC50, answers given:
COc1cc(N(C)CCN(C)C)c(NC(=O)c2ccnc(Cl)c2)cc1Nc1nccc(-c2cn(C)c3ccccc23)n1
> 500 nM
COc1cc(N(C)CCN(C)C)c(NC(=O)c2ccnc(O)c2)cc1Nc1nccc(-c2cn(C)c3ccccc23)n1
> 500 nM

Now for another entry.
(Q) If you can, please state the reported IC50 value of COc1cc(N(C)CCN(C)C)c(NC(=O)c2ccncn2)cc1Nc1nc(-c2cn(C)c3ccccc23)c2cccnc2n1 .
(A) > 500 nM

---

# study-system: Epidermal growth factor receptor (Homo sapiens, UniProt P00533, C797S/L858R/T790M)
# Sequence (P00533 25-1210 T790M/C797S/L858R limits assumed): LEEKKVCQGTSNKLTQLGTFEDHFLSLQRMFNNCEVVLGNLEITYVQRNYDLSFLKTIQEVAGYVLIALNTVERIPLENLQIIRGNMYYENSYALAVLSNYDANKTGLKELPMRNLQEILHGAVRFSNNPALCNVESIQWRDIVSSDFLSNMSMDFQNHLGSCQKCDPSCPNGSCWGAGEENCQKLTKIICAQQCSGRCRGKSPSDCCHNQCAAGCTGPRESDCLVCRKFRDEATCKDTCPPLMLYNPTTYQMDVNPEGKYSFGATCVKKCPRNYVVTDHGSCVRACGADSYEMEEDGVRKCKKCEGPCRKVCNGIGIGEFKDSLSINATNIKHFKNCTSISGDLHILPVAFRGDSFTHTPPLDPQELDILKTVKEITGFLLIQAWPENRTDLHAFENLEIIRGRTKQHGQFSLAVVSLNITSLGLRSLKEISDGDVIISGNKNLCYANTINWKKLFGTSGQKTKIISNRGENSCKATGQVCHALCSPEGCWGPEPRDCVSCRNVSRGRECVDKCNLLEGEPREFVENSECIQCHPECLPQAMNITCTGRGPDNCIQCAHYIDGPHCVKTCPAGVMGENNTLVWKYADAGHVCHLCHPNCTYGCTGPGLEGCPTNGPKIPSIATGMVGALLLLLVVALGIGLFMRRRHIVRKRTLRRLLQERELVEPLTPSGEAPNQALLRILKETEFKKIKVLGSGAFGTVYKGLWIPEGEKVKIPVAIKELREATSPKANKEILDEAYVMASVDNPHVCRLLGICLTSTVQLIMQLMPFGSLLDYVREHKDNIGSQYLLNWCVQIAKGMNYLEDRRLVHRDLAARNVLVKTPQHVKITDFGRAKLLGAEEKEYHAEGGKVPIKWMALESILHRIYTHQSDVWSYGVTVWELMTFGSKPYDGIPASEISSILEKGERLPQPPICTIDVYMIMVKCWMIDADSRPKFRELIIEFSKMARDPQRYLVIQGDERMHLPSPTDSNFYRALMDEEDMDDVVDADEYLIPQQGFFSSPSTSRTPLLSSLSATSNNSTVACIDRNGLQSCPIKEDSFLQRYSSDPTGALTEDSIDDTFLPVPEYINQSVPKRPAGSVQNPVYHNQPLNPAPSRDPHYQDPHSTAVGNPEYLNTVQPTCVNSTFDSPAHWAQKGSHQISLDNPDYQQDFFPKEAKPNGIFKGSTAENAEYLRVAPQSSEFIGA
# experiment-notes: Inhibition of EGFR L858R/T790M/C797S mutant (unknown origin) by mobility shift assay
measured-metric: IC50

Guide cases for IC50, answers given:
COc1cc(N(C)CCN(C)C)c(NC(=O)c2cccnc2)cc1Nc1nccc(-c2cn(C)c3ccccc23)n1
> 500 nM
COc1cc(N(C)CCN(C)C)c(NC(=O)c2ccncn2)cc1Nc1nc(-c2cn(C)c3ccccc23)c2cccnc2n1
> 500 nM
COc1cc(N(C)CCN(C)C)c(NC(=O)c2ccncc2)cc1Nc1nccc(-c2cn(C)c3ccccc23)n1
> 500 nM
COc1cc(N(C)CCN(C)C)c(NC(=O)c2cnccn2)cc1Nc1nccc(-c2cn(C)c3ccccc23)n1
> 500 nM
COc1cc(N(C)CCN(C)C)c(NC(=O)c2ccnc(Cl)c2)cc1Nc1nccc(-c2cn(CCCO)c3ccccc23)n1
137 nM

Now for another entry.
(Q) If you can, please state the reported IC50 value of COc1cc(N(C)CCN(C)C)c(NC(=O)c2ccncn2)cc1Nc1nccc(-c2cn(C)c3ccccc23)n1 .
(A) 242 nM
